Origin of values: PubChem BioAssay AID1159580

Experimental details: chemical genetic growth profiling, strain panel (AID 1159580);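 also: tested at 20 µM; growth read once vehicle control cultures reached saturation at 30 °C; 1 = growth at the plate median or of vehicle wells; lower values mean less growth of the strain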
Measurement context: S. cerevisiae deletion strains, growth OD, locus YMR125W, strain sto1, active compounds read low
About 2,000 (36%) of roughly 5,500 compounds were called active. About 18% were inconclusive and are not listed. Some of the results follow.
Observation type: normalized growth
Answers are plain numbers.

// worked examples, normalized growth included
CC[C@@]1(C2O[C@@H](C3O[C@@](O)(CC)[C@H](C)C[C@@H]3C)C[C@@H]2C)CC[C@H]([C@]2(C)CCC3(C[C@H](O)[C@@H](C)[C@@H]([C@H](C)[C@@H](OC)[C@H](C)C(=O)O)O3)O2)O1 (stereo not given in full) = 0.982
COc1ccccc1OCC(O)CN1CCN(CC(=O)Nc2c(C)cccc2C)CC1 (stereo not given) = 1.01
O=C(O)CCCCC1SCC2NC(=O)NC21 (stereo not given) = 0.989
COc1ccc(/C=C/c2cc(O)cc(O)c2)cc1 = 1.01
CC(=O)O[C@H]1C[C@@H](OC(C)=O)C(C)(C)C2C[C@@H](OC(C)=O)[C@]3(C)C(CC[C@@]4(C)[C@H](c5ccoc5)C(=O)[C@H]5O[C@]543)[C@]21C (stereo not given in full) = 0.978

List reported normalized growth for each of these compounds:
1. Nc1nc2ncc(CNc3ccc(C(=O)N[C@@H](CCC(=O)O)C(=O)O)cc3)nc2c(=O)[nH]1
2. COc1cc(/C=C/C(=O)O)ccc1O
3. CC1(C)O[C@@H]2[C@@H](CO[C@@]3(COS(N)(=O)=O)OC(C)(C)O[C@@H]23)O1
4. O=C(NC(=O)c1c(F)cccc1F)Nc1cc(Cl)c(OC(F)(F)C(F)C(F)(F)F)cc1Cl (stereo not given)
5. OC1CCCCC1N1CCC(c2ccccc2)CC1 (stereo not given)

OUTPUT:
1: 0.993; 2: 1; 3: 1; 4: 0.979; 5: 0.988

List reported normalized growth for each of these compounds:
1. CCN(CC)CCOC(=O)C(Cc1cccc2ccccc12)CC1CCCO1 (stereo not given)
2. CC1(C)O[C@@H]2CC3C4CCC5=CC(=O)C=C[C@]5(C)C4[C@@H](O)C[C@]3(C)[C@]2(C(=O)CO)O1 (stereo not given in full)
3. Nc1ccc(S(=O)(=O)Nc2nccs2)cc1
4. CCOC(=O)c1ccc(N)cc1
5. COc1ccc2c(c1O)-c1c(OC)c(OC)cc3c1[C@H](C2)N(C)CC3

OUTPUT:
[1.01, 0.992, 1, 1.01, 0.99]

List reported normalized growth for each of these compounds:
1. CO[C@@H]1[C@@H](O[C@@H]2O[C@H](C)[C@@H](O[C@H]3C[C@@](C)(O)[C@H](O)[C@H](C)O3)[C@H](N(C)C)[C@H]2O)[C@@H](CC=O)C[C@@H](C)[C@@H](O[C@H]2CC[C@H](N(C)C)[C@@H](C)O2)/C=C/C=C/C[C@H](C)OC(=O)C[C@H]1O
2. CCOC(=O)CCCCCCCCCCCCC1C=CCC1 (stereo not given)
3. NC(=O)c1ccc(N)nc1
4. COc1cc2c(cc1O)CC1c3c(cc(O)c(OC)c3-2)CCN1C (stereo not given)
5. CC12CCC(CC1)C(C)(C)O2
6. CC1=CC(=O)CC(C)(C)C1(O)/C=C/C(C)=C\C(=O)O (stereo not given)
7. CCOc1ccc2c(c1)C(C)=CC(C)(C)N2

OUTPUT:
1. 1.01
2. 0.951
3. 1.01
4. 1.03
5. 0.977
6. 1.06
7. 0.981

----------
Experimental details: chemical genetic growth profiling, strain panel (AID 1159580);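 also: tested at 20 µM; growth read once vehicle control cultures reached saturation at 30 °C; 1 = growth at the plate median or of vehicle wells; lower values mean less growth of the strain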
Measurement context: S. cerevisiae deletion strains, growth OD, locus YFL009W, strain cdc4, active compounds read low
In all, about 5,500 compounds went through this assay and about 2,000 (36%) were called active. Not shown: some 18% with an inconclusive outcome. This is one part of the list.
Observation type: normalized growth

CCOC(=O)c1c(N=Cc2cc(Br)c(Br)cc2O)sc2c1CCCC2 = 0.983 (inactive)
O=C(CO/N=C\c1ccc(Cl)cc1Cl)NNC(=S)Nc1cc(Cl)ccc1Cl = 0.996 (inactive)

Proceeding to the next molecule to report its normalized growth.
INPUT: normalized growth lookup needed for NC(=NC(=O)c1ccc(Cl)cc1)c1cccs1 , thanks.
OUTPUT: 0.954 (inactive)

----------
Experimental details: chemical genetic growth profiling, strain panel (AID 1159580);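 also: tested at 20 µM; growth read once vehicle control cultures reached saturation at 30 °C; 1 = growth at the plate median or of vehicle wells; lower values mean less growth of the strain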
Measurement context: S. cerevisiae deletion strains, growth OD, locus YOR069W, strain VPS5, active compounds read low
In all, about 5,500 compounds went through this assay and about 2,000 (36%) were called active. Roughly 18% stayed inconclusive and do not appear here. The list shows a part of the results.
For each record, write down the corresponding normalized growth.
Give bare numbers.

// worked examples, normalized growth included
CO[C@@H]1C[C@@H](C[C@H]2CC[C@H](C)[C@H]([C@@H](C)C(=O)O)O2)O[C@]2(O[C@](C)([C@H]3CC[C@@](C)(C4O[C@@H](C5O[C@@](O)(CO)[C@H](C)C[C@@H]5C)C[C@@H]4C)O3)C[C@H]2C)[C@@H]1C (stereo partly drawn) = 1.03
Nc1nc2c(c(=O)[nH]1)N(C=O)C(CNc1ccc(C(=O)N[C@@H](CCC(=O)O)C(=O)O)cc1)CN2 (stereo partly drawn) = 0.989
CCCN(CCC)C(=O)C(CCC(=O)O)NC(=O)c1ccccc1 (stereo not drawn) = 0.997

List reported normalized growth for each of these molecules:
1. CCn1cc(C(=O)O)c(=O)c2cnc(N3CCNCC3)nc21
2. CCOC(=O)c1ccc(N)cc1
3. CN(Cc1cnc2nc(N)nc(N)c2n1)c1ccc(C(=O)NC(CCC(=O)O)C(=O)O)cc1 (stereo not drawn)

OUTPUT:
[0.984, 0.998, 0.987]

List reported normalized growth for each of these molecules:
1. CC(=O)O[C@H]1C[C@@H](OC(C)=O)C(C)(C)C2C[C@@H](OC(C)=O)[C@]3(C)C(CC[C@@]4(C)[C@H](c5ccoc5)C(=O)[C@H]5O[C@]543)[C@]21C (stereo partly drawn)
2. OC/C=C/c1ccc(O)c(O)c1
3. CC[C@]12CCCN3CCc4c(n(c5ccccc45)[C@](O)(C(=O)OC)C1)[C@@H]32
4. CCn1cc(C(=O)O)c(=O)c2ccc(C)nc21
5. COc1ccc(/C=C/C(=O)O)cc1OC

OUTPUT:
1.02
0.986
0.992
0.918
1.01

----------
Experimental details: chemical genetic growth profiling, strain panel (AID 1159580);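 also: tested at 20 µM; growth read once vehicle control cultures reached saturation at 30 °C; 1 = growth at the plate median or of vehicle wells; lower values mean less growth of the strain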
Measurement context: S. cerevisiae deletion strains, growth OD, locus YDL192W, strain arf1, active compounds read low
About 2,000 (36%) of roughly 5,500 compounds were called active. Roughly 18% stayed inconclusive and do not appear here. Some of the results follow.
Observation type: normalized growth
Give bare numbers.

// worked examples, normalized growth included
CN1CCc2cccc3c2C1Cc1ccc(O)c(O)c1-3 (stereo not drawn) = 0.997
CCCCC(CC)CN=C(N)NC(N)=NCCCCCCN=C(N)NC(N)=NCC(CC)CCCC (stereo not drawn) = 0.0604
CO[C@@H]1[C@@H](O[C@@H]2O[C@H](C)[C@@H](O[C@H]3C[C@@](C)(O)[C@H](O)[C@H](C)O3)[C@H](N(C)C)[C@H]2O)[C@@H](CC=O)C[C@@H](C)[C@@H](O[C@H]2CC[C@H](N(C)C)[C@@H](C)O2)/C=C/C=C/C[C@H](C)OC(=O)C[C@H]1O = 0.998
COc1ccc(C[C@H](N)C(=O)N[C@@H]2[C@@H](CO)OC(n3cnc4c(N(C)C)ncnc43)[C@@H]2O)cc1 (stereo partly drawn) = 1.02
COc1cc2c(cc1O)CC1c3c(cc(O)c(OC)c3-2)CCN1C (stereo not drawn) = 0.996

List reported normalized growth for each of these compounds:
1. C[C@](N)(Cc1ccc(O)c(O)c1)C(=O)O
2. CC1(C)C2CC(=O)O[C@@]3(C)C4=CC(=O)O[C@@H](c5ccoc5)[C@]4(C)CCC3[C@@]2(C)C=C[C@H]1O (stereo partly drawn)
3. CC[C@@]1(C2O[C@@H](C3O[C@@](O)(CC)[C@H](C)C[C@@H]3C)C[C@@H]2C)CC[C@H]([C@]2(C)CCC3(C[C@H](O)[C@@H](C)[C@@H]([C@H](C)[C@@H](OC)[C@H](C)C(=O)O)O3)O2)O1 (stereo partly drawn)
4. COc1cc2c3cc1Oc1cc(ccc1O)OC1c4c(cc(OC)c(O)c4Oc4ccc(cc4)CC3N(C)CC2)CCN1C (stereo not drawn)
5. NC(=O)c1cnccn1
6. CCCN(CCC)C(=O)C(CCC(=O)O)NC(=O)c1ccccc1 (stereo not drawn)

OUTPUT:
1. 0.974
2. 0.988
3. 0.999
4. 0.981
5. 1.01
6. 0.979

List reported normalized growth for each of these compounds:
1. CCn1cc(C(=O)O)c(=O)c2cnc(N3CCCC3)nc21
2. CC(Cc1ccc(O)c(O)c1)(NN)C(=O)O (stereo not drawn)

OUTPUT:
1: 0.993; 2: 1.01
